- target-of-assay: OR10J5 (Homo sapiens, UniProt Q8NHC4)
- Construct: expressed in transfected cells; host or cells: HEK293T cells stably expressing human RTP1S (V227I) and RTP2 (L220R)
- Sequence (Q8NHC4 with tags, fused parts or gaps): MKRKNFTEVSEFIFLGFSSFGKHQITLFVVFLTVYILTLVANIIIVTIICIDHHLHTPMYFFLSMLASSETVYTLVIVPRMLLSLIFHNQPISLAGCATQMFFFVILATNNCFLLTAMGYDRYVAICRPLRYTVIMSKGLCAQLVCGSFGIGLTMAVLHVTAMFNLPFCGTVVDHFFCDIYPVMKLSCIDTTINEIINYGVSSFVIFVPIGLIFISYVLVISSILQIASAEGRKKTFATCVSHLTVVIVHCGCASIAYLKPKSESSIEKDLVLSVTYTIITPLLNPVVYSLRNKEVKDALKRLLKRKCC
- assay-remarks: cell-based
- Type: cell-based
- conditions: changed C-term SEQ ID NO: 86; read-out: Potency EC50
pEC50: −log10 of the molar value.
quantity-measured: pEC50

P = C/C(=C\CCC=O)CCCC(C)(C)O [Mahonial, (4E)-9-hydroxy-5,9-dimethyl-4-Decenal]
Q = Cc1cc(CC(C)C)ccc1CCC=O
Rank P against Q by their pEC50 values and give the higher one. Kindly state the label of the option you pick.
Q
(Q: 5.21, P: 4.70)

----------
- target-of-assay: OR56A4 (Homo sapiens, UniProt Q8NGH8)
- assay-remarks: cell-based
- conditions: wild-type; read-out: Potency EC50
- Source text: To create an expression plasmid, an OR coding sequence fused at the end of TM7 to the desired C-terminus sequence was synthesized by a DNA synthesis service provider (BioCat GmbH, Germany) and inserted into pcDNA3.1(+) (Invitrogen, MA, USA) downstream of the CMV promoter sequence (SEQ ID NO: 82) using BamHI and Notl restriction sites. […]
quantity-measured: pEC50
Schema: pEC50 number; meaning minus log10 of the concentration expressed in molar units.

Data request, read-out pEC50, for CCCCCCCCCCC(=O)O
3.94

----------
- target-of-assay: OR5A1 (Homo sapiens, UniProt Q8NGJ0)
- assay-remarks: Luciferase dose-response, wild-type vs changed C-terminus (SEQ ID NO: 86)
quantity-measured: pEC50
Just so you know, pEC50 here is -log10 of the concentration in molar units; reply with that number alone.

Query (compound): CC(=O)/C=C/C1=C(C)CCCC1(C)C ; field requested: pEC50
5.26

----------
- target-of-assay: OR2T11 (Homo sapiens)
- Construct: expressed in transfected cells; host or cells: HEK293T stably expressing human RTP1S(V227I) and RTP2(L220R)
- Sequence (Q8NH01 with tags, fused parts or gaps): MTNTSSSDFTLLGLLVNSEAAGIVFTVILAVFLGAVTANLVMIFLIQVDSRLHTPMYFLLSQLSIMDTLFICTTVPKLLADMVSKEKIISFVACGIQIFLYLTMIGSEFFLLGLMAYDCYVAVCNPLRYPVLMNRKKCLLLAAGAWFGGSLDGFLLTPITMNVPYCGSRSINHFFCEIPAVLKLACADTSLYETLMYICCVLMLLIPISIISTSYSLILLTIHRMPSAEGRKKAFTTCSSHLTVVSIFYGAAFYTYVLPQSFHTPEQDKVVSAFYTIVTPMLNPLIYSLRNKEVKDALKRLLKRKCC
- assay-remarks: cell-based
- Assay type: cell-based
- conditions: Potency EC50, changed C-term SEQ ID NO: 86
quantity-measured: EC50 (µM)
Give just the number in µM; leave the unit off.

Which EC50 reading was recorded for the compound C=CCSSCC=C [Diallyl disulfide] ?
6.51

----------
- target-of-assay: OR52A5 (Homo sapiens, UniProt Q9H2C5)
- Sequence (Q9H2C5 with tags, fused parts or gaps): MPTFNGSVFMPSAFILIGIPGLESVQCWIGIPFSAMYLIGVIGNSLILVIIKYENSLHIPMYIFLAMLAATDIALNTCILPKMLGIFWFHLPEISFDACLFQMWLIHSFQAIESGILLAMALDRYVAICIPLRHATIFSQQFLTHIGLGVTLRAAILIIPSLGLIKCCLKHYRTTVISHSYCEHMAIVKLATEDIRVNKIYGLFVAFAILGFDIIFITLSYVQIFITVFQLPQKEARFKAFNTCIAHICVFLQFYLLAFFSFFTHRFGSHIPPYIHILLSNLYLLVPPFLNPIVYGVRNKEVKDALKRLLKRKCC
- assay-remarks: cell-based
- conditions: changed C-term SEQ ID NO: 86; read-out: Potency EC50
quantity-measured: EC50 (µM)
# output: bare number, implied unit µM

Param item = CCCCC(CC)CCC(=O)O (stereo not shown) [4-ethyloctanoic acid] ; retrieve measured EC50.
300

----------
- target-of-assay: OR1C1 (Homo sapiens)
- Construct: expressed in transfected cells; host or cells: HEK293T cells stably expressing human RTP1S (V227I) and RTP2 (L220R)
- Sequence (Q15619 with tags, fused parts or gaps): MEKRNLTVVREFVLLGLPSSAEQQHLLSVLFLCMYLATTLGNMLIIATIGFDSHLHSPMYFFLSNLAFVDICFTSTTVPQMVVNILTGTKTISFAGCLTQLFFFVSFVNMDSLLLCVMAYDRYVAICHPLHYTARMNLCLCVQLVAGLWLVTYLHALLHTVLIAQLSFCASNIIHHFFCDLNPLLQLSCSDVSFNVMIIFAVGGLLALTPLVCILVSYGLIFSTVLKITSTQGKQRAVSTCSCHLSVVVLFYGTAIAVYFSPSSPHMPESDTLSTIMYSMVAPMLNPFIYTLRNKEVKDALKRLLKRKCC
- assay-remarks: cell-based
- Format: cell-based
- conditions: changed C-term SEQ ID NO: 86; read-out: Potency EC50
quantity-measured: EC50 (µM)
Entry rule: numbers only, all in µM.

EC50 lookup needed for C=CC(C)(O)CCC=C(C)C (stereo not shown) , thanks.
202

----------
- target-of-assay: OR52E8 (Homo sapiens, UniProt Q6IFG1)
- Construct: expressed in transfected cells; host or cells: HEK293T stably expressing human RTP1S(V227I) and RTP2(L220R)
- assay-remarks: cell-based
- Type: cell-based
- conditions: changed C-term SEQ ID NO: 86; read-out: Potency EC50
quantity-measured: EC50 (µM)
Your answer is read as µM, so omit the unit and give the number.

Under OR52E8 (Homo sapiens, UniProt Q6IFG1): EC50 value of CCCC(C)(O)CC(=O)O (stereo not shown) [3-Methyl-3-Hydroxy-Hexanoic acid] ?
69

----------
- target-of-assay: OR7C1 (Homo sapiens, UniProt O76099, D296E/G302K/M297V/R299D/T295K)
- Construct: expressed in transfected cells; host or cells: HEK293T cells stably expressing human RTP1S (V227I) and RTP2 (L220R); transient transfection of pcDNA3.1(+) OR plasmid
- Sequence (O76099 with tags, fused parts or gaps T295K/D296E/M297V/R299D/G302K limits assumed): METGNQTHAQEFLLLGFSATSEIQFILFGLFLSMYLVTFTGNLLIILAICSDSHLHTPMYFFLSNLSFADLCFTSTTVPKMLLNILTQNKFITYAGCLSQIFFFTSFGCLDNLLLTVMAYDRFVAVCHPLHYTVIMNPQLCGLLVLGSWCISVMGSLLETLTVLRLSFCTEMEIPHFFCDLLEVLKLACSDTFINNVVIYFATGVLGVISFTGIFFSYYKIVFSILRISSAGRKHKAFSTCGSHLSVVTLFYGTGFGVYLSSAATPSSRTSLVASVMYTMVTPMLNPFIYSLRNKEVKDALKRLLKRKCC
- assay-remarks: Luciferase dose-response, wild-type vs changed C-terminus (SEQ ID NO: 86)
- Assay type: cell-based
- conditions: changed C-term SEQ ID NO: 86; read-out: Potency EC50
- Description: To create an expression plasmid, an OR coding sequence fused at the end of TM7 to the desired C-terminus sequence was synthesized by a DNA synthesis service provider (BioCat GmbH, Germany) and inserted into pcDNA3.1(+) (Invitrogen, MA, USA) downstream of the CMV promoter sequence (SEQ ID NO: 82) using BamHI and Notl restriction sites. […]
quantity-measured: EC50 (µM)
Only the number, expressed in µM, is required.

Using the record for CC(CO)C1=C2C(C)(C)C3CCC2(C3)C(C)(C)CC1 (stereo not shown) , report its EC50.
2.3

----------
- target-of-assay: OR10A3 (Homo sapiens, UniProt P58181)
- Construct: expressed in transfected cells; host or cells: HEK293T stably expressing human RTP1S(V227I) and RTP2(L220R) (general method)
- Sequence (P58181 with tags, fused parts or gaps): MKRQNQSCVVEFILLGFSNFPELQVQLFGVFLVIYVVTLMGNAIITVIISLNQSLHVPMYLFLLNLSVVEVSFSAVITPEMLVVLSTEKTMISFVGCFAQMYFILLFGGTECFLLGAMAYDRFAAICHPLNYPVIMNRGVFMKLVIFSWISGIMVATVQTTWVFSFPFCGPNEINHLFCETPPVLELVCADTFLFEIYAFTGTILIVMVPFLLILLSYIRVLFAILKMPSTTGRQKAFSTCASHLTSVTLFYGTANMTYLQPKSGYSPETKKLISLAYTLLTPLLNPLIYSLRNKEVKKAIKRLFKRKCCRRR
- assay-remarks: Luciferase assay with odorant mixtures/single ingredients, OR with SEQ ID NO: 221
- Format: cell-based
quantity-measured: EC10 (concentration for 10-fold OR activation) (µM)
Express it in µM; write the number only.

What value of EC10 (concentration for 10-fold OR activation) has been reported for the following molecule? CCCC1CCC(=O)O1 (centres unmarked)
298.04

Would you kindly share the measured EC10 (concentration for 10-fold OR activation) for CC1=CCC(C(C)CC2CCCC2=O)CC1 (centres unmarked) ?
2.32

----------
- target-of-assay: OR2AP1 (Homo sapiens, UniProt Q8NGE2)
- Construct: expressed in transfected cells; host or cells: HEK293T stably expressing human RTP1S(V227I) and RTP2(L220R) (general method)
- Sequence (Q8NGE2 with tags, fused parts or gaps): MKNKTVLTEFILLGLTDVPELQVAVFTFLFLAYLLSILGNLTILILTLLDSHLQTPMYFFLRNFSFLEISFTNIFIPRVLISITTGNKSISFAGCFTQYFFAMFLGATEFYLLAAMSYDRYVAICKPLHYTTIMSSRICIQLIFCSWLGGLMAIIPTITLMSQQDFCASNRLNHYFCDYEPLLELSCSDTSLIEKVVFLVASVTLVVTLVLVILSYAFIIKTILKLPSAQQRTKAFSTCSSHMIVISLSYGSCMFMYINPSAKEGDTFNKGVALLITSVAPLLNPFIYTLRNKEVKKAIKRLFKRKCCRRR
- assay-remarks: Luciferase assay with odorant mixtures/single ingredients, OR with SEQ ID NO: 221
- Type: cell-based
quantity-measured: EC2 (concentration for 2-fold luciferase induction)

Consider the worked cases shown below.
CCCC1CCC(=O)O1 (centres unmarked) : inactive
CCCCCC1CCCC(=O)O1 (centres unmarked) : inactive
CCCCC1CCC(=O)O1 (centres unmarked) : inactive
CC1=CCC(C(C)CC2CCCC2=O)CC1 (centres unmarked) : 19.72 µM

Here is another compound to look at.
Please give the measured EC2 (concentration for 2-fold luciferase induction) for this compound: CCCCCC1CCC(=O)O1 (centres unmarked)
inactive

----------
- target-of-assay: OR10A3 (Homo sapiens, UniProt P58181)
- Construct: expressed in transfected cells; host or cells: HEK293T stably expressing human RTP1S(V227I) and RTP2(L220R) (general method)
- assay-remarks: Luciferase assay with odorant mixtures/single ingredients, OR with SEQ ID NO: 221
- Format: cell-based
- From the text: All human class II OR and all key genetic variants of these OR were synthesized with a sequence coding for an identical modified C-terminal domain […] (SEQ ID NO: 221) in the vector pcDNA3.1(+) to generate a library of all class II OR with an improved C-terminal domain. Class II OR library members with modified C-terminal domains […]
quantity-measured: EC10 (concentration for 10-fold OR activation) (µM)
Please state the figure in µM; there is no need to write the unit.

Completed entries (count: 2):
CCCCCCC1CCC(=O)O1 (stereo not drawn) [Decalactone gamma] : 0.84
CCCCC1CCC(=O)O1 (stereo not drawn) [Octalactone gamma] : 26.93

Now for the molecule whose EC10 (concentration for 10-fold OR activation) we want.
// EC10 (concentration for 10-fold OR activation) lookup, key: CCCCCC1CCC(=O)O1 (stereo not drawn) [Nonalactone gamma]
2.83

This collection of values is drawn from patent EP4664463A1.
